condition description: buffer; pH 7.4; 200.0 µM
Lab note: compare solubility kinetic against 10 µg/mL. Equal or greater, write met. Smaller, write not met.

CCc1cccc(NC(=O)CCCCCC2NC(=O)NC2C)c1 (stereo not given) = met

Given COc1ccccc1NC(=O)C[n+]1ccccc1C.[Cl-] , state whether its solubility kinetic is at least 10 µg/mL.
met

Given CN1CCN(C(=O)c2ccc(C(F)(F)F)cc2)CC1.Cl , state whether its solubility kinetic is at least 10 µg/mL.
met

Given COc1ccccc1N1CCN(CCN2C(=O)C3CCCCN3C2=O)CC1 (stereo not given) , state whether its solubility kinetic is at least 10 µg/mL.
met

Given Cc1c(-c2nc(-c3ccncc3)no2)cccc1[N+](=O)[O-] , state whether its solubility kinetic is at least 10 µg/mL.
not met

Given O=C1N/C(=C/c2cccs2)C(=O)N1Cc1ccc(F)cc1 , state whether its solubility kinetic is at least 10 µg/mL.
not met
